Test system: NCI-H226 lung
Assay: NCI-60 one-dose screen, 48 h
Settings: 10 µM unless noted
Procedure: Growth inhibition of the NCI-H226 human Non-Small Cell Lung tumor cell line is measured as a screen for anti-cancer activity. Cells are grown in 96 well plates and exposed to the test compound for 48 hours. Compounds are tested at a single concentration, which is 10^-5 M for most compounds. The reported endpoint is percent growth (GI% or GIPRCNT), where numbers from 0 - 100% represent growth inhibition, and numbers from -100% - 0 represent cell death. […]
This is part of a sample that, as a whole, favours compounds with a hit. Of some 83,000 tested, about 20% had one in any assay. The source made the active and inactive calls. How the source made its calls: active means growth percent below 10; inactive means the rest.
Outcomes: 1 (yes) = active, 0 (no) = inactive

INSERT INTO assay_data (compound, label_class) VALUES
  ('CC(=O)C1CCC2C3CC(C)=C4CC(O)CCC4(C)C3CCC12C (stereo not given)', '0 (no)'),
  ('COc1cc(NCC(O)CN(CC(C)C)CC(C)C)c2ncccc2c1 (stereo not given)', '0 (no)'),
  ('C/C(=N\NC(=O)CSc1nc2ccccc2c(=O)n1CCc1ccc(S(N)(=O)=O)cc1)c1ccc(Br)cc1', '0 (no)'),
  ('O=C(Nc1cccc(-n2ccc3c(NC(=O)c4ccccc4)nccc32)c1)c1ccc(Cl)c(Cl)c1', '0 (no)'),
  ('COc1cc2c(cc1OC)-c1cc(OC)c(OC)cc1C(CN(C)C)C2 (stereo not given)', '0 (no)'),
  ('CC(C)(C)[Si](C)(C)OC1[C@@H](O[Si](C)(C)C(C)(C)C)[C@@H](CNC(=O)NC(=O)NC(=O)CCl)O[C@H]1n1cnc2c(NC(=O)Nc3ccccc3)ncnc21 (stereo not given in full)', '0 (no)'),
  ('Clc1ccc(-c2nc(-c3cccs3)no2)cc1', '0 (no)'),
  ('CCOC(=O)Nc1ccc2nc(Sc3ccc(Cl)cc3)sc2c1', '0 (no)'),
  ('C=C(C)[C@@H]1CC[C@]2(C(=O)NS(=O)(=O)c3ccccc3)CC[C@]3(C)[C@H](CC[C@@H]4[C@@]5(C)CC[C@H](OC(=O)NS(=O)(=O)c6ccccc6)C(C)(C)[C@@H]5CC[C@]43C)[C@@H]12', '0 (no)'),
  ('CCS(=O)(=O)Nc1cccc(Nc2c3cccc(C)c3nc3c(C)cccc23)c1OC', '1 (yes)'),
  ('Nc1nc(NC2CC2)cc(-c2cccc(Cl)c2Cl)n1', '0 (no)'),
  ('CCCCCCCCCCCCCCCCCC(=O)[O][Sn]([CH2]CCC)([CH2]CCC)[CH2]CCC', '1 (yes)'),
  ('CN(C)c1ccc(/C=C\c2cccc[n+]2C)cc1', '0 (no)'),
  ('CCN(CC)Cc1cc(Nc2ccnc3ccc(OC)cc23)ccc1O', '0 (no)'),
  ('CCc1c(C)c2ccc(O)c(-c3cc(-c4ccccc4)c(C#N)c(=O)[nH]3)c2oc1=O', '0 (no)'),
  ('CC(C)(c1ccccc1)c1cc(O)c(C(C)(C)c2ccccc2)cc1O', '0 (no)'),
  ('O=C(CSc1nc2c(n1Nc1ccccc1)-c1ccccc1SC2)Nc1nccs1', '0 (no)'),
  ('CCNCCCn1c2c(c3ccc(Cl)cc3c1=O)C(=O)c1cc(OC)cnc1-2', '1 (yes)'),
  ('OC(COCc1ccccc1)COCc1ccccc1', '0 (no)'),
  ('C[Si](C)(C)C(c1ccccc1)c1ccccc1', '0 (no)');
